Biological target: Protein kinase C epsilon type (Homo sapiens)
Sequence (Q02156 whole entry): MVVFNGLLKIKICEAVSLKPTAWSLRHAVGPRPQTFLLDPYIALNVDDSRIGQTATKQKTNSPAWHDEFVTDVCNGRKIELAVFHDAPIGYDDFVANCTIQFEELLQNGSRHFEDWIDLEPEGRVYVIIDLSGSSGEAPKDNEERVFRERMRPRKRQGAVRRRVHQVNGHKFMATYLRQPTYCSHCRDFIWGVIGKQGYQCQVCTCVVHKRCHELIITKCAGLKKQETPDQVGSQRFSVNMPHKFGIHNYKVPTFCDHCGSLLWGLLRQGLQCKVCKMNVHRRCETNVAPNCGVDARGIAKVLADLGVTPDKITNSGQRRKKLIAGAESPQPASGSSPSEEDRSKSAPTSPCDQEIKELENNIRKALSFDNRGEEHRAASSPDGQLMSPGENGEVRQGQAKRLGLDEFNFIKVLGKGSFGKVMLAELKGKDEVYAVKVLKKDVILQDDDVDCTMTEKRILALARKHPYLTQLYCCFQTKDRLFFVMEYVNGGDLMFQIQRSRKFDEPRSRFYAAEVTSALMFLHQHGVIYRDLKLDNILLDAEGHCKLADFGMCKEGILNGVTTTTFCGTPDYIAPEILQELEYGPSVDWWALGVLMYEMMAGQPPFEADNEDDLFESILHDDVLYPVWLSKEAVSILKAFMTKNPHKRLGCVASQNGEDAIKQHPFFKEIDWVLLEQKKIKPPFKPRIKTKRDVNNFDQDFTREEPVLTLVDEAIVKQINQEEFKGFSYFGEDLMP
Assay: Inhibition of protein kinase C epsilon expressed in Sf-9 cells
experimental.endpoint: IC50 (nM)

molecular.string	target.entity	result
CC(=O)OCOC(=O)c1cccc(O)c1C(=O)c1c(O)cc(C(=O)O[C@@H]2CNC[C@H]2NC(=O)c2ccc(O)cc2)cc1O	Protein kinase C epsilon type (Homo sapiens)	130
CC(C)COC(=O)c1cccc(O)c1C(=O)c1c(O)cc(C(=O)O[C@@H]2CNC[C@H]2NC(=O)c2ccc(O)cc2)cc1O	Protein kinase C epsilon type (Homo sapiens)	3200
CCCCOC(=O)c1cccc(O)c1C(=O)c1c(O)cc(C(=O)O[C@@H]2CNC[C@H]2NC(=O)c2ccc(O)cc2)cc1O	Protein kinase C epsilon type (Homo sapiens)	3700
COC(=O)c1cccc(O)c1C(=O)c1c(O)cc(C(=O)O[C@@H]2CNC[C@H]2NC(=O)c2ccc(O)cc2)cc1O	Protein kinase C epsilon type (Homo sapiens)	170
